Tested on: A549
Test: Antiproliferative activity against human A549 cells measured at 6 hrs over 120 hrs by videomicroscopy analysis
Type: functional, cell-based
pEC50: −log10 of the molar value.
measured-endpoint: pEC50

Q: Any idea what pEC50 was measured for COc1cc(O)c2c(c1)C(=O)C1=C(C2=O)[C@H](O)[C@@H](O)[C@@](C)(O)[C@@H]1O ?
Result: < 5.70

----------
I'd appreciate it if you could supply pIC50 values for the items below.
Assay: Inhibition of TNFalpha-induced NF-kappa-B transcriptional activity in human K562 cells pretreated with compound for 2 hrs measured 6 hrs post TNFalpha challenge by luciferase reporter gene assay
Type: cell-based
One number for each entry, as −log10 of the molar value.

COc1cc(OC(C)=O)c2c(c1)C(=O)C1=C(C2=O)[C@H](OC(C)=O)[C@@H](OC(C)=O)[C@@](C)(O)[C@@H]1OC(C)=O = 5.33

// switching to the query compound
Q: Name the recorded pIC50 for COc1cc(O)c2c(c1)C(=O)C1=C(C2=O)[C@H](O)[C@@H](O)[C@@](C)(O)[C@@H]1O [ALTERSOLANOL A] .
Result: 6.10
